Target: T1, human ROR1 on cells (HEK293T-hROR1, PANC-1, A549) (human, UniProt Q01973 30-937)
T1 construct: whole, on cells; one molecule for the three cell lines; also called huROR1; cell surface ROR1
T1 sequence (Q01973 30-937): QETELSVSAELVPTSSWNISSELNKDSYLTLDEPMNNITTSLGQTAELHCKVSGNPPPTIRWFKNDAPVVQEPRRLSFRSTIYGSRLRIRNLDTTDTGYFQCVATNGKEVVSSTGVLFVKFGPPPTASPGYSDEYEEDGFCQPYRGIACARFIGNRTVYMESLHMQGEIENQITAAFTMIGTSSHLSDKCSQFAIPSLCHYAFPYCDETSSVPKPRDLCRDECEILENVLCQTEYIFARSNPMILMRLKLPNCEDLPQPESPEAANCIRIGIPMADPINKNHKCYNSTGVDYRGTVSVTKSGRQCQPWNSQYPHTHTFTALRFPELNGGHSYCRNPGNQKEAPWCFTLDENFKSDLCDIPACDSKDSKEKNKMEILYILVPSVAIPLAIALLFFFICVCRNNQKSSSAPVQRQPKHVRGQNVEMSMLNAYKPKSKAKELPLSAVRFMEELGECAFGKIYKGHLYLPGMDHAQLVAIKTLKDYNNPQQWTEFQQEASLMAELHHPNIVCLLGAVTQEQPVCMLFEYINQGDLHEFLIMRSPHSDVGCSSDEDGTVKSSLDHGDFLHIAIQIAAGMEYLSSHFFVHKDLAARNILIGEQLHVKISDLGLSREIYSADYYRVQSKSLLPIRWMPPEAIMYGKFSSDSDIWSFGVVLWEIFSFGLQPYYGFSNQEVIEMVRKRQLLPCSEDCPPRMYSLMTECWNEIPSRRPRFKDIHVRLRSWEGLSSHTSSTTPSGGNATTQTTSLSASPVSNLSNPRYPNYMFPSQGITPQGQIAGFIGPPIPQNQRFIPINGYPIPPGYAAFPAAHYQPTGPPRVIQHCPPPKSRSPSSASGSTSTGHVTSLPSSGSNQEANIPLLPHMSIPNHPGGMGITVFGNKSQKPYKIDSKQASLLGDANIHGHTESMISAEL
Test: flow cytometry on PANC-1 cells, MFI (Median-APC) [bottom panel, letter not given]
measure: EC50 (read off the curve)

Report EC50 (read off the curve) for PR007422 (antibody, V domains shown, bivalent form (HCAb) variant of PR005340, no light chain) VH: EVQLVESGGGLVKPGGSLRLSCAASGFTFSDFYMSWIRQAPGKGLEWISYIDSSGRPLAYADSVKGRFTISRDNAKNSLYLQMNSLRAEDTAIYYCARDIPSSSSDWVSLQFDYWGQGTLVTVSS please. ~0.6 nM

Try this binder next: PR005340 (antibody, human IgG1, V domains shown, HCAb (heavy chain-only, human IgG1 Fc), no light chain) VH: EVQLVESGGGLVKPGGSLRLSCAASGFTFSDYYMSWIRQAPGKGLEWISYISSSGSTIHYADSVKGRFTISRDNAKNSLYLQMNSLRAEDTAIYYCARDIPSSSSDWVSLQFDYWGQGTLVTVSS ~2 nM

# iterate: PR007424 (antibody, V domains shown, bivalent form (HCAb) variant of PR005340, no light chain) VH: EVQLVESGGGLVKPGGSLRLSCAASGFTFSDYYMSWIRQAPGKGLEWISYIDSSGRPLAYADSVKGRFTISRDNAKNSLYLQMNSLRAEDTAIYYCARDMPSSSSDWVSLQFDYWGQGTLVTVSS ~0.6 nM

Now the binder PR007420 (antibody, V domains shown, bivalent form (HCAb) variant of PR005340, no light chain) VH: EVQLVESGGGLVKPGGSLRLSCAASGFTFSDFYMSWIRQAPGKGLEWISYISSSGSTRYYADSVKGRFTISRDNAKNSLYLQMNSLRAEDTAIYYCARDMPSSSSDWVSLQFDYWGQGTLVTVSS ~0.7 nM

Ref: patent US20250257130A1
